Data origin, for the record: paper PMC5986078

system: LN229 cells; test: WST-1 proliferation assay; type: cell-based; conditions: Homo sapiens, LN-229, 72 h, read-out: IC50, proliferation (WST assay)
pIC50: −log10 of the molar value.
experimental_endpoint: pIC50

[ask] Find the measured pIC50 of `CC(C)c1cc(C(=O)N2Cc3ccc(CN4CCN(C)CC4)cc3C2)c(O)cc1O` and report it.
[reply] ≥ 6.60
